assay: Primary qHTS for inhibitors of SARS-S pseudo-typed particle cell entry (AID 1479145); conditions: SARS-S pseudotyped particle cell entry, luciferase reporter; series mostly up to 57.1 µM; note: nearly all actives have a fitted effect of over 45% in size; for activity change, negative = inhibition: % is set by controls: 0 for no effect and ±100 for the full control effect
Records with an inconclusive call do not appear. Calls of active or inactive are those of the source. Calls come from the whole dose curve.
Readout Kind: activity change, negative = inhibition

>  <Smiles Repr>
c1ccc2c(CC3=NCCN3)cccc2c1

>  <Value Observed>
inactive

$$$$
>  <Smiles Repr>
CCCCC(=O)OCC(=O)[C@H]1[C@H](C)C[C@H]2[C@@H]3C[C@H](F)C4=CC(=O)C=C[C@]4(C)[C@@]3(F)[C@@H](O)C[C@@]21C

>  <Value Observed>
inactive

$$$$
>  <Smiles Repr>
CC(C)C(=O)c1c(C(C)C)nn2ccccc12

>  <Value Observed>
inactive

$$$$
>  <Smiles Repr>
C[C@@H]1O[C@@H](OC[C@H]2O[C@@H](Oc3c(-c4ccc(O)c(O)c4)oc4cc(O)cc(O)c4c3=O)[C@H](O)[C@@H](O)[C@@H]2O)[C@H](O)[C@H](O)[C@H]1O

>  <Value Observed>
inactive

$$$$
>  <Smiles Repr>
O=C(CCOCCOCCOCCOCCC(=O)Nc1c(I)cc(I)c(C(=O)O)c1I)Nc1c(I)cc(I)c(C(=O)O)c1I

>  <Value Observed>
inactive

$$$$
>  <Smiles Repr>
C[C@H]1C[C@@H]2[C@H]([C@@H](O)C[C@@]3(C)[C@H]2CC[C@]3(O)C(=O)CO)[C@@]2(C)C=CC(=O)C=C12

>  <Value Observed>
inactive

$$$$
>  <Smiles Repr>
C#C[C@]1(O)CC[C@H]2[C@@H]3CCc4cc(OC5CCCC5)ccc4[C@H]3CC[C@@]21C

>  <Value Observed>
inactive

$$$$

Let's switch to this compound now.
// lookup activity change, negative = inhibition for `CCn1cc(C(=O)O)c(=O)c2cnc(N3CCCC3)nc21`
-4.52% [at 11.4 µM] (inactive)

----------
settings: Ebola virus entry assay, green fluorescence channel
Measured potencies and affinities stand elsewhere.
Listed here: items and their measured efficacy.
Give the value in % but do not write % after it.

Sample answers from the record:
>  <Compound>
CCN(CC)CCc1c[nH]c2ccccc12

>  <Units Symbol>
%

>  <efficacy>
21.6

$$$$
>  <Compound>
O=C(N/N=C/c1ccc([N+](=O)[O-])o1)c1cc([N+](=O)[O-])cc([N+](=O)[O-])c1O

>  <Units Symbol>
%

>  <efficacy>
-16.9

$$$$
>  <Compound>
C[C@@H]1CCC[C@H](C)N1

>  <Units Symbol>
%

>  <efficacy>
-7.35

$$$$

Let's switch to this compound now.
// lookup efficacy for `COC(=O)c1cccnc1`
12.2

----------
experiment: Cellular Toxicity (caspase-3) BJ (AID 658); details: BJ fibroblasts, luminescence, normalized: DMSO 0%, staurosporine 100%; series mostly up to 91.7 µM;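 note: cells exposed to compound for 16 hours; 0% = DMSO basal and 100% = 10 µM staurosporine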
Active and inactive are the calls of the source. Calls come from the whole dose curve; as a rule, active = well fitted curve in the direction sought with a large enough effect; inconclusive = small, poorly fitted or top-dose-only effect, or another doubt; inactive = no such curve, though single readings can be large or run the other way.
Readout Kind: outcome

>  <Compound>
COP(=S)(OC)Oc1ccc(SC)c(C)c1

>  <outcome>
inactive

$$$$
>  <Compound>
C[C@]12CCC(=O)C=C1CC[C@@H]1[C@@H]2CC[C@@]2(C)[C@H]1CC[C@]2(C)O

>  <outcome>
inactive

$$$$
>  <Compound>
CN1C[C@H](C(=O)N[C@]2(C)O[C@@]3(O)[C@@H]4CCCN4C(=O)[C@H](Cc4ccccc4)N3C2=O)C=C2c3cccc4[nH]cc(c34)C[C@H]21

>  <outcome>
inactive

$$$$
>  <Compound>
CCOC(=O)CC(SP(=S)(OC)OC)C(=O)OCC (stereo unspecified)

>  <outcome>
inactive

$$$$
>  <Compound>
Oc1ccc(Cl)cc1

>  <outcome>
inactive

$$$$

// lookup outcome for `NCCc1ccc(O)cc1`
inactive

----------
assay: qHTS assay for small molecule agonists of the antioxidant response element (ARE) signaling pathway measured by Nrf2-dependant transcriptional activity - cell viability counter screen (AID 720653); conditions: ARE-bla HepG2 viability, CellTiter-Glo ATP luminescence, 16 h; stronger effect = lower value; note: % is set by controls: 0 for no effect and ±100 for the full control effect
Results filed as inconclusive are left out.
Readout Kind: max response (%)
Give the value in % but do not write % after it.

Sample answers from the record:
>  <Smiles Repr>
Nc1nc(N)nc(NC2CC2)n1

>  <Units Symbol>
%

>  <Value Observed>
14.5

$$$$
>  <Smiles Repr>
C[C@]1(O)CC[C@H]2[C@@H]3CCC4=CC(=O)CC[C@]4(C)[C@@]3(F)[C@@H](O)C[C@@]21C

>  <Units Symbol>
%

>  <Value Observed>
-5.41

$$$$

Let's switch to this compound now.
// lookup max response for `Nc1ccccc1`
-9.58

----------
experiment: qHTS for differential inhibitors of proliferation of Plasmodium falciparum line 7G8 (AID 1815); settings: Plasmodium falciparum 7G8 proliferation inhibition; series mostly up to 28.7 µM;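 note: parasite growth measured after three days of incubation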; note: potency is the fitted concentration of half-maximal effect
Results filed as inconclusive are left out. Calls of active or inactive are those of the source. Calls come from the whole dose curve; as a rule, active = well fitted curve in the direction sought with a large enough effect; inconclusive = small, poorly fitted or top-dose-only effect, or another doubt; inactive = no such curve, though single readings can be large or run the other way.
Readout Kind: Potency

>  <Compound>
CN1C(=O)CCS(=O)(=O)C1c1ccc(Cl)cc1 (stereo not given)

>  <Readout Kind>
Potency

>  <Value Observed>
inactive

$$$$
>  <Compound>
CC(C)(C)NCC(O)c1ccccc1Cl (stereo not given)

>  <Readout Kind>
Potency

>  <Value Observed>
5.62 µM (active)

$$$$
>  <Compound>
O=P1(N(CCCl)CCCl)NCCCO1 (stereo not given)

>  <Readout Kind>
Potency

>  <Value Observed>
inactive

$$$$
>  <Compound>
CCC1(c2ccc(N)cc2)CCC(=O)NC1=O (stereo not given)

>  <Readout Kind>
Potency

>  <Value Observed>
inactive

$$$$

Let's switch to this compound now.
// lookup Potency for CC(C)N(CCC(C(N)=O)(c1ccccc1)c1ccccn1)C(C)C (stereo not given)
inactive

----------
tested on: WaGa; assay: qHTS assay to identify novel small-molecules to repurpose for Merkel cell carcinoma treatment (AID 1296009); conditions: MCC and control cell lines, CellTiter-Glo viability, 72 h; series mostly up to 46 µM; note: nearly all actives have a fitted effect of over 60% in size
Records with an inconclusive call do not appear. The source made the active and inactive calls. Calls follow the shape of the dose curve; as a rule, active = well fitted inhibition curve with a large enough effect; inconclusive = small, poorly fitted or top-dose-only effect; inactive = flat fitted curve, though single readings scatter.
Reply using exactly one outcome from yes (1) for active, no (0) for inactive

>  <Molecule>
CNC(C)(C)Cc1ccccc1

>  <Measurement Target>
WaGa

>  <Class>
no (0)

$$$$
>  <Molecule>
CCCCCCC(=O)CCCCCC/C=C/C[C@@H](O)[C@H](O)[C@@](N)(CO)C(=O)O

>  <Measurement Target>
WaGa

>  <Class>
no (0)

$$$$

Could you kindly confirm the outcome this assay logged for `Nc1ccc([As](=O)(O)O)cc1` ?
no (0)

Could you kindly confirm the outcome this assay logged for CN1C(=O)COc2c(C(=O)NC3CN4CCC3CC4)cc(Cl)cc21 (configuration not stated) ?
no (0)

Could you kindly confirm the outcome this assay logged for `C[C@](O)(CS(=O)(=O)c1ccc(F)cc1)C(=O)Nc1ccc(C#N)c(C(F)(F)F)c1` ?
yes (1)

Could you kindly confirm the outcome this assay logged for `CC(C)(N)Cc1ccccc1Cl` ?
no (0)

Could you kindly confirm the outcome this assay logged for `COc1cccc([C@@]2(O)CCCC[C@@H]2CN(C)C)c1` ?
no (0)

Could you kindly confirm the outcome this assay logged for `Nc1ccccc1C(=O)O` ?
no (0)

Could you kindly confirm the outcome this assay logged for CC(C)=CC1C(C(=O)OCN2C(=O)C3=C(CCCC3)C2=O)C1(C)C (configuration not stated) ?
no (0)

Could you kindly confirm the outcome this assay logged for CC(Cc1ccccc1)N(C)Cc1ccco1 (configuration not stated) ?
no (0)

Could you kindly confirm the outcome this assay logged for CC(C)(C)NCC(O)c1cc(Cl)c(N)c(C(F)(F)F)c1 (configuration not stated) ?
no (0)

Could you kindly confirm the outcome this assay logged for CCC1(c2ccc(N)cc2)CCC(=O)NC1=O (configuration not stated) ?
no (0)

----------
system: DFO2036; experiment: qHTS profiling for inhibitors of Plasmodium falciparum proliferation (AID 504749); note: nearly all actives have a fitted effect of over 60% in size; conditions: P. falciparum in erythrocytes, SYBR Green DNA, 72 h; series mostly up to 28.7 µM
Inconclusive results are not listed. Active and inactive are the calls of the source. Calls follow the shape of the dose curve; as a rule, active = well fitted inhibition curve with a large enough effect; inconclusive = small, poorly fitted or top-dose-only effect; inactive = flat fitted curve, though single readings scatter.
Reply using exactly one outcome from label 1 for active, label 0 for inactive

Could you kindly confirm the outcome this assay logged for `C[C@]12CCC(=O)C=C1CC[C@@H]1[C@@H]2CC[C@]2(C)C(=O)CC[C@@H]12` ?
label 0

Could you kindly confirm the outcome this assay logged for `O=C(N/N=C/c1ccc([N+](=O)[O-])o1)c1cc([N+](=O)[O-])cc([N+](=O)[O-])c1O` ?
label 1

Could you kindly confirm the outcome this assay logged for COC(=O)C(c1ccccc1)C1CCCCN1 (stereo unspecified) ?
label 0

Could you kindly confirm the outcome this assay logged for `COc1c2c(cc3c1OCO3)CCN(C)C2` ?
label 0

Could you kindly confirm the outcome this assay logged for `CCCCCCCCCC(=O)O[C@H]1CC[C@H]2[C@@H]3CCC4=CC(=O)CC[C@@H]4[C@H]3CC[C@]12C` ?
label 0

Could you kindly confirm the outcome this assay logged for CC(C)=CC1C(C(=O)OCN2C(=O)C3=C(CCCC3)C2=O)C1(C)C (stereo unspecified) ?
label 0

Could you kindly confirm the outcome this assay logged for `O=C1CN=C(c2ccccc2)c2cc([N+](=O)[O-])ccc2N1` ?
label 0

// data source = PubChem BioAssay (NCATS)
